Entry source: patent US20250250357A1

target: T1, human MSLN-FL-his protein (human, UniProt Q13421 296-580); assay: competitive ELISA; row F8-36.12; also: test concentration or dose not given here
T1 construct: made in HEK293E cells, purified on nickel column; also called hMSLN-FL-his; human MSLN full-length protein; not shown: His tag
T1 sequence (Q13421 other isoform, or with tags, fused parts or gaps): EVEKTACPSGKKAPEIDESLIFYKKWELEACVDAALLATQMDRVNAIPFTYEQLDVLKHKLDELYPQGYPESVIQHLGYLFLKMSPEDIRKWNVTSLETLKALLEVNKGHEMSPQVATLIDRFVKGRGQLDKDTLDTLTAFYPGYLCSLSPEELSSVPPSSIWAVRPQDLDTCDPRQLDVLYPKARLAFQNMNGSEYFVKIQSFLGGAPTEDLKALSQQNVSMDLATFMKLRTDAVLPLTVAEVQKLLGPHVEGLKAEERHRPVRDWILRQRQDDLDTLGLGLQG
value_kind: competition rate (%)
Please respond with the number in % and leave the unit unwritten.

Solved entries (count: 4):
binder	units_symbol	competition rate
S009-F8-28.23 (antibody, human IgG1, kappa, V domains shown, human-murine chimeric antibody, human IgG1/kappa constant regions) VH: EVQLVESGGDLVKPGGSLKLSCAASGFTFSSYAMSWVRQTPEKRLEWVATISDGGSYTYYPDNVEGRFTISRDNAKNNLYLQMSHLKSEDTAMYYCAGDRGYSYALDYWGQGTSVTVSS VL: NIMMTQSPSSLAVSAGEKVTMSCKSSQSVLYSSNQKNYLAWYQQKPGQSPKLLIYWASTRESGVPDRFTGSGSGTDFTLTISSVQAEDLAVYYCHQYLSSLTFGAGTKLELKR	%	-79.5
S009-F8-24.14 (antibody, human IgG1, kappa, V domains shown, human-murine chimeric antibody, human IgG1/kappa constant regions) VH: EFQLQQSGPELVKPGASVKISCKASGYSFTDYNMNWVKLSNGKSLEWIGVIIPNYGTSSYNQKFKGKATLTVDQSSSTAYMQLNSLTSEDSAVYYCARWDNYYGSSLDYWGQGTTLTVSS VL: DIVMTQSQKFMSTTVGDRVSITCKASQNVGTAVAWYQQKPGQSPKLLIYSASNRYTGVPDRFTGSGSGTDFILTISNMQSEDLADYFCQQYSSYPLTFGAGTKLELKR	%	-142
S009-F8-8.22 (antibody, human IgG1, kappa, V domains shown, human-murine chimeric antibody, human IgG1/kappa constant regions) VH: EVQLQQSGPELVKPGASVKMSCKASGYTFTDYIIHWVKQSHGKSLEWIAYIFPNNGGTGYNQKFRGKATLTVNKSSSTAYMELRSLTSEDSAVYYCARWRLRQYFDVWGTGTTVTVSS VL: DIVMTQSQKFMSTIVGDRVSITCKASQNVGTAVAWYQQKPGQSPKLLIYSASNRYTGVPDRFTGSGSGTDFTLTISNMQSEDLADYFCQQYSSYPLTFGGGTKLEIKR	%	-138
S009-F8-22.23 (antibody, human IgG1, kappa, V domains shown, human-murine chimeric antibody, human IgG1/kappa constant regions) VH: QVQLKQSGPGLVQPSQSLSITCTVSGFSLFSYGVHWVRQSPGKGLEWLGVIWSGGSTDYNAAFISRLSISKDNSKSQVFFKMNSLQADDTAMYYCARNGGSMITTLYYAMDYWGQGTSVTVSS VL: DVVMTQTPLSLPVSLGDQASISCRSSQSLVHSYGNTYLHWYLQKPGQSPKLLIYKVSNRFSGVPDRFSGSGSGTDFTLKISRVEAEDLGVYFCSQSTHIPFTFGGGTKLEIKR	%	-156

Input: Endpoint output: competition rate of S009-F8-32.3 (antibody, human IgG1, kappa, V domains shown, human-murine chimeric antibody, human IgG1/kappa constant regions) VH: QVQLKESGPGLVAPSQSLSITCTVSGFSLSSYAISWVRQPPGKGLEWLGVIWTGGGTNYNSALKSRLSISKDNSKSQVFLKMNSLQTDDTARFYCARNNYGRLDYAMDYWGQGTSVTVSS VL: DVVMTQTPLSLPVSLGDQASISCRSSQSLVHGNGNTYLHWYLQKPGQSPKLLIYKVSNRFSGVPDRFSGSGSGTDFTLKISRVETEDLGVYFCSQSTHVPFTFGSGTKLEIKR . Value?
Output: -164
